Molecular target: ATM (Homo sapiens, UniProt Q13315)
Construct: detecting phosphorylation of Chk2 in a human non-small cell lung cancer cell line NCI-H460 (ATCC company); host or cells: NCI-H460 human non-small cell lung cancer cells
Sequence (Q13315 whole entry): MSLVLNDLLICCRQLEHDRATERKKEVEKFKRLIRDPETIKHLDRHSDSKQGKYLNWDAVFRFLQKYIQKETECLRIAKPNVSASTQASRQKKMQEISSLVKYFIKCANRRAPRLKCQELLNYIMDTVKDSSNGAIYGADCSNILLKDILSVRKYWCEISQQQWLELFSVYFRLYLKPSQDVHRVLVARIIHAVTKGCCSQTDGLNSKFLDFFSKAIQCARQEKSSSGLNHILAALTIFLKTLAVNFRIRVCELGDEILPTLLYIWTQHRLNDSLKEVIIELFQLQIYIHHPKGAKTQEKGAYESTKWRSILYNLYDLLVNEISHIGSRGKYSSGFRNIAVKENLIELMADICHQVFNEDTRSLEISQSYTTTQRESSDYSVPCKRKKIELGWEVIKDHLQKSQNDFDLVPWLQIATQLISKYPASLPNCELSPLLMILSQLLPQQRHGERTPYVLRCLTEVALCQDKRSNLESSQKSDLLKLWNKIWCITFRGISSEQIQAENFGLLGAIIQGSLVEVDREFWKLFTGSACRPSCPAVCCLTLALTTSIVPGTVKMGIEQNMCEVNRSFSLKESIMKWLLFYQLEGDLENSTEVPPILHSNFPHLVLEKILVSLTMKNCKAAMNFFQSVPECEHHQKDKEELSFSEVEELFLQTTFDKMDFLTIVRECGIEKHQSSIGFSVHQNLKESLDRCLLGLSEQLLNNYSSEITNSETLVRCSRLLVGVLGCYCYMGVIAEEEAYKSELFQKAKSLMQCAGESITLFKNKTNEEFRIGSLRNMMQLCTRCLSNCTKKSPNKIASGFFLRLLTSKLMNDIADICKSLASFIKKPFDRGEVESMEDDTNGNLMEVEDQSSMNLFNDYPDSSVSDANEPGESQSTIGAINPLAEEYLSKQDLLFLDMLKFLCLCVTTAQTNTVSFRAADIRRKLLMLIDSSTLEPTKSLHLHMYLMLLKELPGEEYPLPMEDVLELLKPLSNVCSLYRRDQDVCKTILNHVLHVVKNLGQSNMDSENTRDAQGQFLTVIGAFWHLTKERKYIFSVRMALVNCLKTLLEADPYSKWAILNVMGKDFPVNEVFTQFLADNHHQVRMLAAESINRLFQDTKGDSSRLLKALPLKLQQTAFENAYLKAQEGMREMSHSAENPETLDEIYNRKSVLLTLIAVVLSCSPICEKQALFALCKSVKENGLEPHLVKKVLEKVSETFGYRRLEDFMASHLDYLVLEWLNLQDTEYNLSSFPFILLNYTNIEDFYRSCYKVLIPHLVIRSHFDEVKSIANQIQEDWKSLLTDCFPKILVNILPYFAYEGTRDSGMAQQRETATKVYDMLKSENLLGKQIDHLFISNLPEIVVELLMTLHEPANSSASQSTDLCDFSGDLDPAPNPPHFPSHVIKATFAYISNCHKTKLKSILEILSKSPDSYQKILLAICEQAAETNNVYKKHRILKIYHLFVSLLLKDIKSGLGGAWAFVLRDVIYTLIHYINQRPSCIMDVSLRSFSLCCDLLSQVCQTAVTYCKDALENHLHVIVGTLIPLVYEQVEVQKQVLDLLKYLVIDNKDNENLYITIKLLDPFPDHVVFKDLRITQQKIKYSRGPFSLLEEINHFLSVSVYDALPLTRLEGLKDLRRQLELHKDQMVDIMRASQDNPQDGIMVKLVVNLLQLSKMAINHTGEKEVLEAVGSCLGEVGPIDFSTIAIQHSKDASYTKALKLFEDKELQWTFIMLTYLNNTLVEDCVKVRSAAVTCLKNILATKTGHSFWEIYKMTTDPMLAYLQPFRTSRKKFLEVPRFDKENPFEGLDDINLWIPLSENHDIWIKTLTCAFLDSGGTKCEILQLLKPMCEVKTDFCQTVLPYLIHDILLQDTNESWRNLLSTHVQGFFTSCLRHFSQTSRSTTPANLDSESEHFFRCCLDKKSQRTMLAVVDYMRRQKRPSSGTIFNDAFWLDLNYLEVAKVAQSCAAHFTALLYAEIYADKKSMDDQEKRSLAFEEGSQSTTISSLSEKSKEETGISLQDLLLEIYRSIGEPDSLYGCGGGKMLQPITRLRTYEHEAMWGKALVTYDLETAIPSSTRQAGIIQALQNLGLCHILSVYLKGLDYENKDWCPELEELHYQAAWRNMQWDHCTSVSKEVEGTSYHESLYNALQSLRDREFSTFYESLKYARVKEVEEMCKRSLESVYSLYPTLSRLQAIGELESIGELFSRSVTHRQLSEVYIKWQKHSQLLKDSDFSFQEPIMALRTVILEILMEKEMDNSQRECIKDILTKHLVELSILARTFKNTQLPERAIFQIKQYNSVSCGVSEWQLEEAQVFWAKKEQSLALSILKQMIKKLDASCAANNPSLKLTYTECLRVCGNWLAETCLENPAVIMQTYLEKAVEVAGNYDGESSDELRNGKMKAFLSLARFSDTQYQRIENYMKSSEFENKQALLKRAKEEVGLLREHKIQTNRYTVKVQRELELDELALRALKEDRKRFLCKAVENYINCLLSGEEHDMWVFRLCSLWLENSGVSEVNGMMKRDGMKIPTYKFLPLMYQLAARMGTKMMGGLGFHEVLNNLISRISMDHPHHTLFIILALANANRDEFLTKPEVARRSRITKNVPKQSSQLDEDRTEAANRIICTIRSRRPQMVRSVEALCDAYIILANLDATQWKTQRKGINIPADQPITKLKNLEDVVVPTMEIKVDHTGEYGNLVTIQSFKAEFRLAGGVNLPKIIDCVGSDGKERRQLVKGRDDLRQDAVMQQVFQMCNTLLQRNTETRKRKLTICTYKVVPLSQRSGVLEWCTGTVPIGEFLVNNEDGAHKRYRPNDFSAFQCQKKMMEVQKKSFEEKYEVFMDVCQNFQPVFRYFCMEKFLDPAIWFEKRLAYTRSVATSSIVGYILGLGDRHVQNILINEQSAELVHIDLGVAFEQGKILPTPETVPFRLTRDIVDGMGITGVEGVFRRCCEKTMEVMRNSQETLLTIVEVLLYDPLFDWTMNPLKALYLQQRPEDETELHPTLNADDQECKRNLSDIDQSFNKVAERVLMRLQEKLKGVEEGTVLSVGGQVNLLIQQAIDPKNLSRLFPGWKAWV
Assay: ATM inhibition test (phosphorylation of Chk2 generated by ionizing radiation, AlphaScreen SureFire)
Assay type: cell-based
Conditions: phosphorylated Chk2 in NCI-H460 cells, ionizing radiation 8Gy, 1 hour after test compound treatment; read-out: ATM inhibitory activity
Protocol: ATM inhibitory effects of a test compound were measured by detecting phosphorylation of Chk2 in a human non-small cell lung cancer cell line NCI-H460 (ATCC company). The level of phosphorylated Chk2 generated by an ionizing radiation was measured using AlphaScreen SureFire (TGR Biosciences). The cells were seeded by 40000 cells per well in 96-well CellBIND® plates (Corning International Inc.), and incubated at 37° C. overnight in 5% CO2. […]
pIC50: −log10 of the molar value.
measuredEndpoint: pIC50

Find the measured pIC50 of Cc1ccc(C(C[C@@H]2CCCN2)Nc2ccc3c(c2)Sc2cccc(-c4cc(N5CCOCC5)cc(=O)[nH]4)c2S3)nc1 (single isomer, unassigned) with ATM (Homo sapiens, UniProt Q13315) as test system.
6.30 to 7.00

Find the measured pIC50 of CC(Nc1ccc2c(c1)Sc1cccc(-c3cc(N4CCOCC4)cc(=O)[nH]3)c1S2)c1ncc(CN2CCCC2)cn1 (stereo not shown) with ATM (Homo sapiens, UniProt Q13315) as test system.
6.30 to 7.00

Find the measured pIC50 of `COc1cncc(CNc2ccc3c(c2)Cc2cccc(-c4cc(N5CCOCC5)cc(=O)[nH]4)c2O3)n1` with ATM (Homo sapiens, UniProt Q13315) as test system.
> 7.00

Now for the compound whose pIC50 we want.
Find the measured pIC50 of Cc1cccc(C(CO)Nc2ccc3c(c2)Sc2cccc(-c4cc(N5CCOCC5)cc(=O)[nH]4)c2S3)n1 (single isomer, unassigned) [Example 1-12-140-2] with ATM (Homo sapiens, UniProt Q13315) as test system.
> 7.00

* * *

Molecular target: ATM (Homo sapiens, UniProt Q13315)
Construct: detecting phosphorylation of Chk2 in a human non-small cell lung cancer cell line NCI-H460 (ATCC company); host or cells: NCI-H460 human non-small cell lung cancer cells
Assay: ATM inhibition test (phosphorylation of Chk2 generated by ionizing radiation, AlphaScreen SureFire)
Format: cell-based
Conditions: phosphorylated Chk2 in NCI-H460 cells, ionizing radiation 8Gy, 1 hour after test compound treatment; read-out: ATM inhibitory activity
pIC50: −log10 of the molar value.
measuredEndpoint: pIC50

Give me measured pIC50, please, for this compound: CC(CNc1ccc2c(c1)Sc1cccc(-c3cc(N4CCOCC4)cc(=O)[nH]3)c1S2)N1CCOCC1 (single isomer, unassigned) [Example 1-9-2-2]
6.30 to 7.00

Give me measured pIC50, please, for this compound: CC(CN1CCO[C@@H](C)C1)Nc1ccc2c(c1)Sc1cccc(-c3cc(N4CCOCC4)cc(=O)[nH]3)c1S2 (some centres unmarked)
5.70 to 6.30

Give me measured pIC50, please, for this compound: `Cc1ccc(CNc2ccc3c(c2)Sc2cccc(-c4cc(N5CCOCC5)cc(=O)[nH]4)c2S3)nc1`
> 7.00

More entries:
Give me measured pIC50, please, for this compound: `COC[C@H](CN(C(C)C)C(C)C)Nc1ccc2c(c1)Sc1cccc(-c3cc(N4CCOCC4)cc(=O)[nH]3)c1S2`
6.30 to 7.00

Give me measured pIC50, please, for this compound: `CN(C)c1nccc(CN2CCC(Nc3ccc4c(c3)Cc3cccc(-c5cc(N6CCOCC6)cc(=O)[nH]5)c3O4)CC2)n1`
6.30 to 7.00

Give me measured pIC50, please, for this compound: `O=c1cc(N2CCOCC2)cc(-c2cccc3c2Oc2ccc(NCc4cncc(-n5cccc5)c4)cc2C3)[nH]1`
> 7.00

Give me measured pIC50, please, for this compound: `O=c1cc(N2CCOCC2)cc(-c2cccc3c2Oc2ccc(NCc4nccs4)cc2C3)[nH]1`
6.30 to 7.00

Hey, just so you know, these numbers are from patent US9586951B2.
